Where these numbers come from: patent US20220235065A1

Below is a list of entries, each paired with its recorded IC50 value.
target: recombinant purified human EHMT2 913-1193 (Homo sapiens, UniProt Q96KQ7); construct: Recombinant purified human EHMT2 913-1193 (55 μM) synthesized by Viva was used for all experiments; purchased Viva; experiment: EHMT2 enzyme assay on histone peptide substrate (3H-SAM Flashplate); format: biochemical; conditions: read-out: EHMT2 PEP (IC50 μM)
Sequence (Q96KQ7 913-1193): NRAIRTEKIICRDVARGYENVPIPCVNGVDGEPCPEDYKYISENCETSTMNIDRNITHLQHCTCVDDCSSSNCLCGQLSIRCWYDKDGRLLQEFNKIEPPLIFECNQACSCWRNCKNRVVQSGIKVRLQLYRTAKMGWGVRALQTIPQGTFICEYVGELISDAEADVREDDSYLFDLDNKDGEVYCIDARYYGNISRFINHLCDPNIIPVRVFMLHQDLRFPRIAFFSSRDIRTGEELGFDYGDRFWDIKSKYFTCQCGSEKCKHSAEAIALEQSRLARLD
reported-property: IC50

INSERT INTO results (molecule, reported_property, meas_value) VALUES
  ('CNCc1cc(-c2cc(Nc3nc(C)cc(NC)n3)ccc2OC)no1 [Compound 331]', 'IC50', '< 0.1 µM'),
  ('CNC1=Nc2cc(-c3cc4[nH]ccc4c(C(N)=O)n3)c(OC)cc2C12CCC2 [Compound 308]', 'IC50', '1 to 10 µM'),
  ('CNc1ccnc(Nc2ccc(OC)c(-n3cnc(CN(C)C)c3)c2)n1 [Compound 170]', 'IC50', '0.1 to 1 µM'),
  ('CNc1cc(C)nc(Nc2ccc(Cl)c(-n3cc(C4CCCN4)cn3)c2)n1 (stereo not drawn) [Compound 330]', 'IC50', '< 0.1 µM'),
  ('CNC(=O)c1nn(-c2cc(Nc3nc(C)cc(NC)n3)ccc2OC)cc1C [Compound 134]', 'IC50', '> 10 µM'),
  ('CNC1=Nc2cc(-n3cc(C4CCCN4)cn3)c(OC)cc2C12CCC2 (stereo not drawn) [Compound 322]', 'IC50', '< 0.1 µM');
